test: collision cross section of modified peptide (TIMS, N2, iRT-aligned); higher = larger / more extended gas-phase ion; details: charge state: 2; modification: Phospho (Y)
metric: collision cross section (Å²)
Answers are plain numbers, in Å².

Worked set:
LQIASDENYK [_LQIASDENY(Phospho (Y))K_]
374.64
LYAVHQEGNK [_LY(Phospho (Y))AVHQEGNK_]
367.74
THLAPYSDELR [_THLAPY(Phospho (Y))SDELR_]
373.88
LQNSYQPTNK [_LQNSY(Phospho (Y))QPTNK_]
366.81
ASCLYGQLPK [_ASCLY(Phospho (Y))GQLPK_]
373.97

Provide each entry's collision cross section from the list below.
1. DLTTAGAVTQCYR [_DLTTAGAVTQCY(Phospho (Y))R_]
2. DYNVTANSK [_DY(Phospho (Y))NVTANSK_]
3. FNALFAQGNYSEAAK [_FNALFAQGNY(Phospho (Y))SEAAK_]
4. YEITEQR [_Y(Phospho (Y))EITEQR_]
5. AEGYEVAHGGR [_AEGY(Phospho (Y))EVAHGGR_]
6. VYPSSLSK [_VY(Phospho (Y))PSSLSK_]

[405.28, 337.74, 426.34, 328.08, 370.65, 344.53]

Values compiled from the supplement of paper PMC10598134.
